Molecular target: Alpha-1B adrenergic receptor (Homo sapiens, UniProt P35368)
Sequence (P35368 whole entry): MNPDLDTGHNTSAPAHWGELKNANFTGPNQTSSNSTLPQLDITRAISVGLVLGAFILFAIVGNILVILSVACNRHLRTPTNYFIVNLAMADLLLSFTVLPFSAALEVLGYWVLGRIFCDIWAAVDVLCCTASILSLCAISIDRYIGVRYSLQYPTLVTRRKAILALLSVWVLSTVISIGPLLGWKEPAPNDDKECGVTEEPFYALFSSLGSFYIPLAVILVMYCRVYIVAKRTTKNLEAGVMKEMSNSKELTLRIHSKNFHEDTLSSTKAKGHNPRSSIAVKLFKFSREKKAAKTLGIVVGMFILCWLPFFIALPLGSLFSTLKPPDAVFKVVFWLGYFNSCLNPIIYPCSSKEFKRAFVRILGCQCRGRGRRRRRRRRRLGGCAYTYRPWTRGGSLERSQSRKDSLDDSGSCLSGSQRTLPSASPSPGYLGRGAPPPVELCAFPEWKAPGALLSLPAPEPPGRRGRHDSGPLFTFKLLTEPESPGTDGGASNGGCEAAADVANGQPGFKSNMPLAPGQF
Assay: Antagonist activity at human alpha1B adrenoceptor assessed as inhibition of norepinephrine-induced increase of intracellular calcium level by cell based assay
Recorded endpoint: IC50
Remember to quote the unit after the number.

Complete the entry with IC50 for Fc1ccc2c(C3CCN(CCCN4CCc5ccccc5C4)CC3)c[nH]c2c1
0.56 µM

---

Biological target: Alpha-1D adrenergic receptor (Homo sapiens)
Sequence (P25100 whole entry): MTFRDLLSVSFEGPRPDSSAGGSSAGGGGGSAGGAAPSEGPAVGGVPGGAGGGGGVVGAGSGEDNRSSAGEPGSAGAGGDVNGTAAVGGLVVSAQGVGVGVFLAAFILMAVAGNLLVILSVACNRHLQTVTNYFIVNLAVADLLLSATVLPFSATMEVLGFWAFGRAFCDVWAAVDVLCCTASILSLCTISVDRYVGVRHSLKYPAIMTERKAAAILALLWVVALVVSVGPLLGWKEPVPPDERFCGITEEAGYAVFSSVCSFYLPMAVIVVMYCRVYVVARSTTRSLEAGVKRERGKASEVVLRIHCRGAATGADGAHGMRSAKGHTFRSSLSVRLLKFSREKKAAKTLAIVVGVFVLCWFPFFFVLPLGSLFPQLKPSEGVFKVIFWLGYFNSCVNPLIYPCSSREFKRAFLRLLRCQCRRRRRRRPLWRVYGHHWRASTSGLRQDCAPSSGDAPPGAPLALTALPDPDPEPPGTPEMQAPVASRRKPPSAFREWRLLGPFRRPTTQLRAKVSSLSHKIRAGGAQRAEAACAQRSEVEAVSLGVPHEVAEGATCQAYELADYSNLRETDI
Assay: Binding affinity to human recombinant alpha1D adrenoceptor
Recorded endpoint: Ki (nM)
Numbers only, in nM.

Respond only with Ki recorded for Fc1ccc2c(C3CCN(CCCN4CCc5ccccc5C4)CC3)c[nH]c2c1
16

---

Biological target: Alpha-1A adrenergic receptor (Rattus norvegicus)
Sequence (P43140 whole entry): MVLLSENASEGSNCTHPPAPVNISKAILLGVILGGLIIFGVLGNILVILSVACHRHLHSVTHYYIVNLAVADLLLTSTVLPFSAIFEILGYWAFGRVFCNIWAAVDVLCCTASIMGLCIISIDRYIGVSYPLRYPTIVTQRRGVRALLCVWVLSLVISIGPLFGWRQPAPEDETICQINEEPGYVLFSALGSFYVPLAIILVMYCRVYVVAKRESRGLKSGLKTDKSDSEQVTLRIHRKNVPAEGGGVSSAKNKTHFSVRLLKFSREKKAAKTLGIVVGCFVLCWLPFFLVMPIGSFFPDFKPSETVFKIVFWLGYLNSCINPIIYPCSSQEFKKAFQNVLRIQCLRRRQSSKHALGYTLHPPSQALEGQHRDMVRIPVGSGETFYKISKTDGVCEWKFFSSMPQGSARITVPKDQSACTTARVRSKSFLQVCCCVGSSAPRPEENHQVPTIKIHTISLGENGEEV
Recorded endpoint: Ki (nM)
Give bare numbers, in nM.

Examples with answers:
c1ccc(CCCN2CCC(c3c[nH]c4ccccc34)CC2)cc1	16
CN(C)CCCN1CCC(c2c[nH]c3ccccc23)CC1	240
c1ccc2c(C3CCNCC3)c[nH]c2c1	3100

# context switch: different compound, same Ki
Determine its reported Ki: c1ccc2c(C3CCN(CCCC4CCCCC4)CC3)c[nH]c2c1
140

---

Molecular target: Alpha-1B adrenergic receptor (Rattus norvegicus)
Sequence (P15823 whole entry): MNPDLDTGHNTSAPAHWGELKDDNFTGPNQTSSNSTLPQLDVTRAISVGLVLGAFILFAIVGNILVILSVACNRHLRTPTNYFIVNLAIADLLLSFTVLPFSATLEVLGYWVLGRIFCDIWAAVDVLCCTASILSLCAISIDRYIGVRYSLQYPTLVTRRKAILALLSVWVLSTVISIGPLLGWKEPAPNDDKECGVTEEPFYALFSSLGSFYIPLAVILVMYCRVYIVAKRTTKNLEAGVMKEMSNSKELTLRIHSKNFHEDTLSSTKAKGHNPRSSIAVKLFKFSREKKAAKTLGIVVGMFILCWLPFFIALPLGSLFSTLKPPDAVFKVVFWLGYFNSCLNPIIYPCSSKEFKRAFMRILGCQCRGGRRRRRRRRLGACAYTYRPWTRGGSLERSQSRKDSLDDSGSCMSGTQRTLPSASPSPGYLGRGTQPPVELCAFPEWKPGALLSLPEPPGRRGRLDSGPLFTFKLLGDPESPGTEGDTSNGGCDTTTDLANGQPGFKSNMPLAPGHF
Answer each item with its documented Ki.
Answers are plain numbers, in µM.

# example entries with known answers
c1ccc2c(C3CCN(CCCn4cccc4)CC3)c[nH]c2c1	0.011
c1ccc2c(C3CCN(CCCC4CCCCC4)CC3)c[nH]c2c1	0.047
CN(C)CCCN1CCC(c2c[nH]c3ccccc23)CC1	0.0048

Could you now consider this next compound?
Tell me measured Ki for c1ccc2c(C3CCNCC3)c[nH]c2c1 please.
0.44
